assay_overview: Solubility determination
Type: physicochemical
Numbered stars: 1 amine (or outer) side, 2 acyl side, 3 side chain; on linkers, the order of the positions; unused ones are H or OH. Bridge positions count the residues as written; N and C are the ends. Square brackets hold non-standard residues; d marks the D form. Peptide text beside a SMILES is read from it. * marks the point of attachment. Piperazine(2S-CO,4-Me) = CN1CCN[C@H](C(=O)O)C1; Phe(3-OMe) = COc1cccc(C[C@H](N)C(=O)O)c1; Phe(3-Me) = Cc1cccc(C[C@H](N)C(=O)O)c1; NH(4-Cl-2-F-phenyl) = Fc1cc(Cl)ccc1N*; Pro(4R-Me) = C[C@H]1CN[C@H](C(=O)O)C1; Hyp = O=C(O)[C@@H]1C[C@@H](O)CN1; NH(4-Et-phenyl) = CCc1ccc(N*)cc1; aThr = C[C@H](O)[C@H](N)C(=O)O; Pip = O=C(O)[C@@H]1CCCCN1; X3 = c1cc2c(cc1N*)OCCO2; CO = O=C([*:1])[*:2]
endpoint: μsol (μM) (µM)

molecule	assay_result
COc1cccc(C[C@H](NC(=O)Nc2ccc(Cl)cc2F)C(=O)N[C@H]2COC(=O)[C@@H]3C[C@@H](C)CN3C(=O)[C@H](C)NC(=O)[C@@H]3CN(C)CCN3C(=O)[C@@H]3CCCN3C2=O)c1 [Compound 19] ({NH(4-Cl-2-F-phenyl)-CO}-[Phe(3-OMe)]SP[Piperazine(2S-CO,4-Me)]A[Pro(4R-Me)]; ester 2-C)	51.5
Cc1cccc(C[C@H](NC(=O)Nc2ccc(Cl)cc2F)C(=O)N[C@@H]2C(=O)N3C[C@H](O)C[C@H]3C(=O)N3CCCC[C@H]3C(=O)N[C@@H](C)C(=O)N3C[C@H](C)C[C@H]3C(=O)O[C@H]2C)c1 [Compound 6] ({NH(4-Cl-2-F-phenyl)-CO}-[Phe(3-Me)][aThr][Hyp][Pip]A[Pro(4R-Me)]; ester 2-C)	13.9
Cc1cccc(C[C@H](NC(=O)Nc2ccc(Cl)cc2F)C(=O)N[C@H]2COC(=O)[C@@H]3C[C@@H](C)CN3C(=O)[C@H](C)NC(=O)[C@@H]3CN(C)CCN3C(=O)[C@@H]3CCCN3C2=O)c1 [Compound 13] ({NH(4-Cl-2-F-phenyl)-CO}-[Phe(3-Me)]SP[Piperazine(2S-CO,4-Me)]A[Pro(4R-Me)]; ester 2-C)	38.3
Cc1cccc(C[C@H](NC(=O)Nc2ccc(Cl)cc2F)C(=O)N[C@@H]2C(=O)N3CCC[C@H]3C(=O)N3CCN(C)C[C@H]3C(=O)N[C@@H](C)C(=O)N3C[C@H](C)C[C@H]3C(=O)O[C@H]2C)c1 [Compound 11] ({NH(4-Cl-2-F-phenyl)-CO}-[Phe(3-Me)][aThr]P[Piperazine(2S-CO,4-Me)]A[Pro(4R-Me)]; ester 2-C)	32.2
Cc1cccc(C[C@H](NC(=O)Nc2ccc3c(c2)OCCO3)C(=O)N[C@@H]2C(=O)N3CCC[C@H]3C(=O)N3CCCC[C@H]3C(=O)N[C@@H](C)C(=O)N3C[C@H](C)C[C@H]3C(=O)O[C@H]2C)c1 [Compound 21] ({X3-CO}-[Phe(3-Me)][aThr]P[Pip]A[Pro(4R-Me)]; ester 2-C)	36.8
CCc1ccc(NC(=O)N[C@@H](Cc2cccc(C)c2)C(=O)N[C@@H]2C(=O)N3C[C@H](O)C[C@H]3C(=O)N3CCCC[C@H]3C(=O)N[C@@H](C)C(=O)N3C[C@H](C)C[C@H]3C(=O)O[C@H]2C)cc1 [Compound 25] ({NH(4-Et-phenyl)-CO}-[Phe(3-Me)][aThr][Hyp][Pip]A[Pro(4R-Me)]; ester 2-C)	9.0
